Would you kindly list pIC50 for each of these compounds?
Test system: TNFα release in THP-1 cells
Assay: LPS-induced TNFα release in THP-1 cells
Assay type: cell-based, human
Conditions: Homo sapiens
One number for each entry, as −log10 of the molar value.

Cc1ccc(-n2nc(C3(C)CCCCC3)cc2NC(=O)Nc2ccc(Oc3ccnc(NC(=O)N4CCCC4)c3)c(Cl)c2Cl)cc1 [Example 74] | 7.94
COCC(=O)Nc1cc(Oc2ccc(NC(=O)Nc3cc(C(C)(C)C)nn3-c3ccc(C)cc3)c(F)c2F)ccn1 [Example 34] | 9.40
COCC(=O)Nc1cc(Oc2cc(Cl)c(NC(=O)Nc3cc(C(C)(C)C)nn3-c3ccc(C)cc3)cc2F)ccn1 [Example 38] | 8.43
COc1ccc(-n2nc(C(C)(C)C)cc2NC(=O)Nc2ccc(Oc3cc(NC(=O)NCCN(C)C)ncn3)c(Cl)c2Cl)cc1 [Example 100] | 9.15
COCC(=O)Nc1cc(Oc2ccc(NC(=O)Nc3cc(C(C)(C)C)nn3-c3ccc(C)cc3)c3c2CCCC3)ccn1 [Example 5] | 8.85

Hello, I would appreciate it if you could give pIC50 for each entry below.
1. COCC(=O)Nc1cc(Oc2ccc(NC(=O)Nc3cc(C(C)(C)C)nn3-c3ccc(C)cc3)c3ncccc23)ccn1 [Example 40]
2. COCC(=O)Nc1cc(Oc2ccc(NC(=O)Nc3cc(C(C)(C)C)nn3-c3ccc(C)cc3)cc2C(F)(F)F)ccn1 [Example 30]
3. CC(C)(C)c1cc(NC(=O)Nc2ccc(Oc3ccnc(NC(=O)NCCN4CCOCC4)c3)c(Cl)c2Cl)n(-c2ccc(CO)cc2)n1 [Example 71]
4. CN(C)CCNC(=O)Nc1cc(Oc2ccc(NC(=O)Nc3cc(C(C)(C)C)nn3-c3ccc(CO)cc3)c(Cl)c2Cl)ncn1 [Example 101]

[9.15, 8.89, 9.15, 7.98]

List reported pIC50 for each of these compounds:
1. COCC(=O)Nc1cc(COc2ccc(NC(=O)Nc3cc(C(C)(C)C)nn3-c3ccc(OC)cc3)c(Cl)c2Cl)ccn1 [Example 15]
2. COCC(=O)Nc1cc(Oc2ccc(NC(=O)Nc3cc(C(C)(C)C)nn3-c3ccc(C)cc3)c3cccnc23)ccn1 [Example 6]
3. CNCC(=O)Nc1cc(Oc2ccc(NC(=O)Nc3cc(C(C)(C)C)nn3-c3ccc(OC)cc3)c(Cl)c2Cl)ccn1 [Example 42]
4. CNC(=O)Nc1cc(Oc2ccc(NC(=O)Nc3cc(C(C)(C)C)nn3-c3ccc(OC)cc3)c3cccnc23)ccn1 [Example 58]
5. CNC(=O)Nc1cc(Oc2ccc(NC(=O)Nc3cc(C(C)(C)C)nn3-c3ccc(CO)cc3)c(Cl)c2Cl)ncn1 [Example 99]

7.70
8.80
9.15
8.66
8.96

* * *

Tested on: TNFα release in THP-1 cells
Assay: LPS-induced TNFα release in THP-1 cells
Format: cell-based, human
Settings: Homo sapiens
Observable: pIC50
Numbers only, as −log10 of the molar value.

Take a look at these entries with their results.
COCC(=O)Nc1cc(Oc2ccc(NC(=O)Nc3cc(C(C)(C)C)nn3-c3ccc(OC)cc3)c(Cl)c2Cl)ncn1 | 8.80
COCC(=O)Nc1cc(Oc2ccc(NC(=O)Nc3cc(C(C)(C)C)nn3-c3ccc(C)cc3)c(S(C)(=O)=O)c2)ccn1 | 8.28
Cc1ccc(-n2nc(C(C)(C)C)cc2NC(=O)Nc2ccc(Oc3cc(NC(=O)NCCN(C)C)ncn3)c(Cl)c2Cl)cc1 | 8.77

Record pIC50 for all entries; do not skip any.
1. COc1ccc(-n2nc(C(C)(C)C)cc2NC(=O)Nc2ccc(Oc3ccnc(NC(=O)NCCCn4ccnc4)c3)c(Cl)c2Cl)cc1
2. COc1ccc(-n2nc(C(C)(C)C)cc2NC(=O)Nc2ccc(Oc3ccnc(NC(=O)NCCO)c3)c(Cl)c2Cl)cc1
3. CNC(=O)Nc1cc(COc2ccc(NC(=O)Nc3cc(C(C)(C)C)nn3-c3ccc(C)cc3)c(Cl)c2Cl)ccn1
4. CC(C)(C)c1cc(NC(=O)Nc2ccc(Oc3ccnc(NC(=O)CN4CCOCC4)c3)c(Cl)c2Cl)n(-c2ccc(CO)cc2)n1

1: 8.85; 2: 8.96; 3: 8.46; 4: 9.40

* * *

Tested on: TNFα release in d-U937 cells
Assay: LPS-induced TNFα release in d-U937 cells
Assay type: cell-based, human
Conditions: Homo sapiens, dU937, relative to 10 μg/mL BIRB796, read-out: LPS/TNFα REC50 d-U937
Could you mark each record Condition met if its EC50 falls strictly under 0.9 nM, and Condition not met if it equals or exceeds it?

// below: answered molecules
CNC(=O)Nc1cc(Oc2ccc(NC(=O)Nc3cc(C(C)(C)C)nn3-c3ccc(C(=O)OC)cc3)c(Cl)c2Cl)ccn1 [Example 59] | Condition not met
COCC(=O)Nc1cc(Oc2ccc(NC(=O)Nc3cc(C(C)(C)C)nn3-c3ccc(C)cc3)c(Cl)c2Cl)ncn1 [Example 89] | Condition met
Cc1ccc(-n2nc(C(C)(C)C)cc2NC(=O)Nc2ccc(Oc3ccnc(NC(=O)N(C)C)c3)c(Cl)c2Cl)cc1 [Example 63] | Condition met

Threshold test, EC50 < 0.9 nM: COCC(=O)Nc1cc(Oc2ccc(NC(=O)Nc3cc(C(C)(C)C)nn3-c3ccc(O)cc3)c(Cl)c2Cl)ccn1 [Example 41]
Condition met

Item CNC(=O)Nc1cc(COc2ccc(NC(=O)Nc3cc(C(C)(C)C)nn3-c3ccc(C)cc3)c(Cl)c2Cl)ccn1 [Example 102] : EC50 beneath 0.9 nM, strictly?
Condition not met

Here's an entry: COCC(=O)Nc1cc(Oc2ccc(NC(=O)Nc3cc(C(C)(C)C)nn3-c3ccc(C)cc3)c(F)c2F)ccn1 [Example 34] . Is its EC50 below 0.9 nM?
Condition met

* * *

Tested on: TNFα release in d-U937 cells
Assay: LPS-induced TNFα release in d-U937 cells
Type: cell-based, human
Conditions: Homo sapiens, dU937, relative to 10 μg/mL BIRB796, read-out: LPS/TNFα REC50 d-U937
Observable: pEC50
One number for each entry, as −log10 of the molar value.

# annotated cases, reported pEC50 shown
CNC(=O)Nc1cc(Oc2ccc(NC(=O)Nc3cc(C4(C)CCCCC4)nn3-c3ccc(C)cc3)c(Cl)c2Cl)ccn1 | 8.77
COCC(=O)Nc1cc(Oc2ccc(NC(=O)Nc3cc(C(C)(C)C)nn3-c3ccc(C)cc3)c3[nH]ncc23)ccn1 | 6.95
COCC(=O)Nc1cc(Oc2ccc(NC(=O)Nc3cc(C(C)(C)C)nn3-c3ccc(C)cc3)c(Cl)c2)ccn1 | 9.30

Parameters: items (list). Returns: pEC50 for each item.
1. COCC(=O)Nc1nccc(Oc2ccc(NC(=O)Nc3cc(C(C)(C)C)nn3-c3ccc(C)cc3)c(Cl)c2Cl)n1
2. CNC(=O)Nc1cc(Oc2ccc(NC(=O)Nc3cc(C(C)(C)C)nn3-c3ccc(CO)cc3)c3ncccc23)ccn1
3. CNC(=O)Nc1cc(COc2ccc(NC(=O)Nc3cc(C(C)(C)C)nn3-c3ccc(C)cc3)c3cccnc23)ccn1
4. COc1ccc(-n2nc(C(C)(C)C)cc2NC(=O)Nc2ccc(Oc3ccnc(NC(=O)NCCO)c3)c(Cl)c2Cl)cc1
5. CNC(=O)Nc1cc(Oc2ccc(NC(=O)Nc3cc(C(C)(C)C)nn3-c3ccc(C)cc3)c3ncccc23)ccn1

8.89
6.74
6.79
9.52
9.05

* * *

Tested on: TNFα release in THP-1 cells
Assay: LPS-induced TNFα release in THP-1 cells
Format: cell-based, human
Conditions: Homo sapiens
Quick rule for you: IC50 under 1 nM gets 1.0, anything else gets 0.0.

Worked set:
COCC(=O)Nc1cc(Oc2ccc(NC(=O)Nc3cc(C(C)(C)C)nn3-c3ccc(CO)cc3)c(Cl)c2Cl)ncn1 | 1.0
CN(C)CCCC(=O)Nc1cc(Oc2ccc(NC(=O)Nc3cc(C(C)(C)C)nn3-c3ccc(CO)cc3)c(Cl)c2Cl)ncn1 | 0.0
COCC(=O)Nc1cc(Oc2ccc(NC(=O)Nc3cc(C(C)(C)C)nn3-c3ccc(C)cc3)c(Cl)c2Cl)ncn1 | 0.0
COCC(=O)Nc1cc(Oc2ccc(NC(=O)Nc3cc(C(C)(C)C)nn3-c3ccc(OC)cc3)c(Cl)c2Cl)ccn1 | 0.0
COc1ccc(-n2nc(C(C)(C)C)cc2NC(=O)Nc2ccc(Oc3ccnc(NC(=O)NC4CC4)c3)c(C#N)c2Cl)cc1 | 0.0

State whether 1 nM exceeds IC50 recorded for CNC(=O)Nc1cc(Oc2ccc(NC(=O)Nc3cc(C(C)(C)C)nn3-c3ccc(O)cc3)c(Cl)c2Cl)ccn1 .
1.0

Please determine if COCC(=O)Nc1cc(Oc2ccc(NC(=O)Nc3cc(C(C)(C)C)nn3-c3ccc(C)cc3)c(Br)c2)ccn1 is below 1 nM in terms of IC50.
0.0

IC50 strictly < 1 nM for this molecule? CNC(=O)Nc1cc(Oc2ccc(NC(=O)Nc3cc(C(C)(C)C)nn3-c3ccc(OC)cc3)c(Cl)c2Cl)ncn1
0.0
